target: Sensor histidine kinase WalK (Bacillus subtilis (strain 168)); test: Inhibition of Bacillus subtilis histidine kinase YycG
Property: IC50; scope: individual molecules
assay.endpoint: IC50

INSERT INTO assay_data (smiles_str, assay_endpoint, reported_result) VALUES
  ('C/C1=C\CC(C)(C)/C=C/C(=O)/C(C)=C/CC1', 'IC50', '> 2290 µM'),
  ('COC(=O)[C@H](CCC(=O)O)NC(=O)/C=C/C(C)(C)C/C=C(\C)CC/C=C(\C)Br', 'IC50', '> 1090 µM'),
  ('COC(=O)[C@H](CO)NC(=O)/C=C/C(C)(C)C/C=C(\C)CC/C=C(\C)Br', 'IC50', '< 600 µM'),
  ('COC(=O)[C@H](CCSC)NC(=O)/C=C/C(C)(C)C/C=C(\C)CC/C=C(\C)Br', 'IC50', '> 1090 µM'),
  ('CC[C@H](C)[C@H](NC(=O)/C=C/C(C)(C)C/C=C(\C)CC/C=C(\C)Br)C(=O)O', 'IC50', '> 1170 µM'),
  ('C/C(Br)=C\CC/C(C)=C/CC(C)(C)/C=C/C(=O)N[C@@H](CC(=O)O)C(=O)O', 'IC50', '< 581 µM'),
  ('C/C(Br)=C\CC/C(C)=C/CC(C)(C)/C=C/C(=O)N[C@@H](CO)C(=O)O', 'IC50', '< 621 µM'),
  ('C/C(Br)=C\CC/C(C)=C/CC(C)(C)/C=C/C(=O)N[C@@H](CCC(N)=O)C(=O)O', 'IC50', '< 564 µM'),
  ('C/C(Br)=C\CC/C(C)=C/CC(C)(C)/C=C/C(=O)N[C@@H](Cc1cnc[nH]1)C(=O)O', 'IC50', '< 553 µM');

====

Molecular target: Sensor histidine kinase WalK (Bacillus subtilis (strain 168), UniProt Q45614)
Sequence (Q45614 whole entry): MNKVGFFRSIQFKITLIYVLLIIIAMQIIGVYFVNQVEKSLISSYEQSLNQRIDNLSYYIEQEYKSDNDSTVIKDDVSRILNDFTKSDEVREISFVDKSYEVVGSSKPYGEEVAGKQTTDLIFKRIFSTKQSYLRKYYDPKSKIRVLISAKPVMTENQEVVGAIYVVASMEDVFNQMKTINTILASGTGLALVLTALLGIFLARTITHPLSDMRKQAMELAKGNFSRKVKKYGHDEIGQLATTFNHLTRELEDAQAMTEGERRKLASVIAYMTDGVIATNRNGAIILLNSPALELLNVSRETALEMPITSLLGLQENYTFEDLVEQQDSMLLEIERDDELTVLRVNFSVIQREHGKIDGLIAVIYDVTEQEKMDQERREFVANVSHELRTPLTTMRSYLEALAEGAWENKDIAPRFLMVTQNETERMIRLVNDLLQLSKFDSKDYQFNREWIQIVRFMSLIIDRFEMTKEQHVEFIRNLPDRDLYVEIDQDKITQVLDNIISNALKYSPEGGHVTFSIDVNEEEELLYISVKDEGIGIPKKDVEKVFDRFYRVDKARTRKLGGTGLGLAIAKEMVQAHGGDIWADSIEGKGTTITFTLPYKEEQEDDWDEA
Assay: Inhibition of Bacillus subtilis histidine kinase YycG
pIC50: −log10 of the molar value.
Property: pIC50; scope: individual compounds
assay.endpoint: pIC50

INSERT INTO assay_data (smiles_str, assay_endpoint, reported_result) VALUES
  ('COC(=O)[C@H](Cc1cnc[nH]1)NC(=O)/C=C/C(C)(C)C/C=C(\C)CC/C=C(\C)Br', 'pIC50', '< 2.97'),
  ('COC(=O)[C@H](Cc1ccccc1)NC(=O)/C=C/C(C)(C)C/C=C(\C)CC/C=C(\C)Br', 'pIC50', '< 2.98'),
  ('COC(=O)[C@H](C)NC(=O)/C=C/C(C)(C)C/C=C(\C)CC/C=C(\C)Br', 'pIC50', '< 2.90'),
  ('COC(=O)[C@@H](NC(=O)/C=C/C(C)(C)C/C=C(\C)CC/C=C(\C)Br)C(C)C', 'pIC50', '< 2.93'),
  ('C/C(Br)=C\CC/C(C)=C/CC(C)(C)/C=C/C(=O)N[C@@H](Cc1ccc(O)cc1)C(=O)O', 'pIC50', '> 3.28'),
  ('CCCCCCCCN(CCCCCCCC)C(=O)/C=C/C(C)(C)C/C=C(\C)CC/C=C(\C)Br', 'pIC50', '< 3.03'),
  ('COC(=O)[C@H](Cc1ccc(O)cc1)NC(=O)/C=C/C(C)(C)C/C=C(\C)CC/C=C(\C)Br', 'pIC50', '< 2.99'),
  ('COC(=O)[C@H](CC(=O)O)NC(=O)/C=C/C(C)(C)C/C=C(\C)CC/C=C(\C)Br', 'pIC50', '< 2.95'),
  ('C/C(Br)=C\CC/C(C)=C/CC(C)(C)/C=C/C(=O)N[C@@H](Cc1ccccc1)C(=O)O', 'pIC50', '> 3.27');

====

target: Sensor histidine kinase WalK (Bacillus subtilis (strain 168)); assay: Inhibition of Bacillus subtilis histidine kinase YycG
pIC50: −log10 of the molar value.
assay.endpoint: pIC50

INSERT INTO assay_data (smiles_str, reported_result) VALUES
  ('COC(=O)[C@H](CC(C)C)NC(=O)/C=C/C(C)(C)C/C=C(\C)CC/C=C(\C)Br', '< 2.95'),
  ('COC(=O)[C@H](CC(N)=O)NC(=O)/C=C/C(C)(C)C/C=C(\C)CC/C=C(\C)Br', 2.95),
  ('COC(=O)[C@@H](NC(=O)/C=C/C(C)(C)C/C=C(\C)CC/C=C(\C)Br)[C@@H](C)O', '< 2.93'),
  ('CC[C@H](C)[C@H](NC(=O)/C=C/C(C)(C)C/C=C(\C)CC/C=C(\C)Br)C(=O)OC', '< 2.95'),
  ('C/C(Br)=C\CC/C(C)=C/CC(C)(C)/C=C/C(=O)N[C@@H](C)C(=O)O', '> 3.19');

====

target: Sensor histidine kinase WalK (Bacillus subtilis (strain 168)); experiment: Inhibition of Bacillus subtilis histidine kinase YycG
Property: IC50; scope: individual molecules
assay.endpoint: IC50

INSERT INTO measurements (smiles_str, reported_result) VALUES
  ('C/C(Br)=C\CC/C(C)=C/CC(C)(C)/C=C/CO', '> 1660 µM'),
  ('COC(=O)CNC(=O)/C=C/C(C)(C)C/C=C(\C)CC/C=C(\C)Br', '> 1290 µM'),
  ('CCCCN(CCCC)C(=O)/C=C/C(C)(C)C/C=C(\C)CC/C=C(\C)Br', '> 1170 µM'),
  ('C/C(Br)=C\CC/C(C)=C/CC(C)(C)/C=C/C(=O)N1CCC[C@H]1C(=O)O', '< 606 µM'),
  ('C/C(Br)=C\CC/C(C)=C/CC(C)(C)/C=C/C(=O)N[C@H](C(=O)O)C(C)C', '< 603 µM'),
  ('C/C(Br)=C\CC/C(C)=C/CC(C)(C)/C=C/C(=O)N1CCCCC1', '> 1310 µM'),
  ('C/C(Br)=C\CC/C(C)=C/CC(C)(C)/C=C/C(=O)N[C@@H](CCC(=O)O)C(=O)O', '< 563 µM'),
  ('COC(=O)/C=C/C(C)(C)C/C=C(\C)CC/C=C(\C)Br', '> 1520 µM'),
  ('COC(=O)[C@H](Cc1c[nH]c2ccccc12)NC(=O)/C=C/C(C)(C)C/C=C(\C)CC/C=C(\C)Br', '> 970 µM'),
  ('C/C(Br)=C\CC/C(C)=C/CC(C)(C)/C=C/C(=O)N[C@@H](CC(N)=O)C(=O)O', '< 582 µM'),
  ('CCCCCCCCOC(=O)/C=C/C(C)(C)C/C=C(\C)CC/C=C(\C)Br', '> 1170 µM'),
  ('COC(=O)[C@@H]1CCCN1C(=O)/C=C/C(C)(C)C/C=C(\C)CC/C=C(\C)Br', '< 586 µM'),
  ('C/C(Br)=C\CC/C(C)=C/CC(C)(C)/C=C/C(=O)N[C@@H](Cc1c[nH]c2ccccc12)C(=O)O', '43.9 µM');

====

biological target: Sensor histidine kinase WalK (Bacillus subtilis (strain 168)); assay: Inhibition of Bacillus subtilis histidine kinase YycG
assay.endpoint: IC50

INSERT INTO assay_data (smiles_str, experimental_target, assay_endpoint, reported_result) VALUES
  ('CSCC[C@H](NC(=O)/C=C/C(C)(C)C/C=C(\C)CC/C=C(\C)Br)C(=O)O', 'Sensor histidine kinase WalK (Bacillus subtilis (strain 168))', 'IC50', '< 560 µM'),
  ('C/C(Br)=C\CC/C(C)=C/CC(C)(C)/C=C/C(=O)N[C@@H](CC(C)C)C(=O)O', 'Sensor histidine kinase WalK (Bacillus subtilis (strain 168))', 'IC50', '> 1170 µM'),
  ('COC(=O)[C@H](CCC(N)=O)NC(=O)/C=C/C(C)(C)C/C=C(\C)CC/C=C(\C)Br', 'Sensor histidine kinase WalK (Bacillus subtilis (strain 168))', 'IC50', '1090 µM'),
  ('C/C(Br)=C\CC/C(C)=C/CC(C)(C)/C=C/C(=O)NCC(=O)O', 'Sensor histidine kinase WalK (Bacillus subtilis (strain 168))', 'IC50', '< 671 µM'),
  ('C/C(Br)=C\CC/C(C)=C/CC(C)(C)/C=C/C(=O)N[C@H](C(=O)O)[C@@H](C)O', 'Sensor histidine kinase WalK (Bacillus subtilis (strain 168))', 'IC50', '> 1200 µM');

Hello, the source for this data is ChEMBL document CHEMBL1139052, in case you need it.
